Reported Sedge, Umbrella plant response rating is given for each of the following compounds.
System: smallflower umbrella sedge
Experiment: Test C flooded paddy test
Format: in vivo, Cyperus difformis
Conditions: 250 g ai/ha, scale of 0 to 100, 0 is no effect, 100 is complete control
endpoint: Sedge, Umbrella plant response rating

compound | systemUnderTest | endpoint | testResult
C#CCNC(=O)c1cccc(NC(=O)c2nn(C(C)(C)C)nc2CC)c1 [Compound 380] | smallflower umbrella sedge | Sedge, Umbrella plant response rating | 85
CCNC(=O)c1cccc(NC(=O)c2nn(C(C)C)nc2C)c1 [Compound 405] | smallflower umbrella sedge | Sedge, Umbrella plant response rating | 70
CCn1nc(C(C)(C)C)cc1C(=O)Nc1cc(C(=O)OC)c(OC)cc1F [Compound 75] | smallflower umbrella sedge | Sedge, Umbrella plant response rating | 80
CCOC(=O)c1cccc(NC(=O)c2cc(C(C)(C)C)nn2CCF)c1 [Compound 79] | smallflower umbrella sedge | Sedge, Umbrella plant response rating | 80
CCn1nc(C(C)(C)C)cc1C(=O)Nc1cccc(C(=O)NC2CC2)n1 [Compound 146] | smallflower umbrella sedge | Sedge, Umbrella plant response rating | 90
CCn1nc(C(C)(C)C)cc1C(=O)Nc1cc(C(=O)N2CCOCC2)ccc1F [Compound 243] | smallflower umbrella sedge | Sedge, Umbrella plant response rating | 80
CCNC(=S)c1ccc(F)c(NC(=O)c2cc(C(C)(C)C)nn2CC)c1 [Compound 349] | smallflower umbrella sedge | Sedge, Umbrella plant response rating | 90
Cc1nn(C(C)(C)C)cc1C(=O)Nc1cc(C(=O)N(C)C)ccc1F [Compound 344] | smallflower umbrella sedge | Sedge, Umbrella plant response rating | 75
C=CCOc1cccc(NC(=O)c2cc(C(C)(C)C)nn2CC)c1 [Compound 412] | smallflower umbrella sedge | Sedge, Umbrella plant response rating | 80
CCC1=NN(C(C)(C)C)CC1C(=O)Nc1cc(C(=O)N2CCCC2)ccc1F (racemic) [Compound 341] | smallflower umbrella sedge | Sedge, Umbrella plant response rating | 60
CCn1nc(C(C)(C)C)cc1C(=O)Nc1cncc(C(=O)N(C)C)n1 [Compound 287] | smallflower umbrella sedge | Sedge, Umbrella plant response rating | 70
CCn1nc(C(C)(C)C)cc1C(=O)Nc1cc(C#N)ccc1F [Compound 140] | smallflower umbrella sedge | Sedge, Umbrella plant response rating | 45
CCn1nc(C(C)(C)C)cc1C(=O)Nc1cccc(S(=O)(=O)C(F)(F)F)c1 [Compound 134] | smallflower umbrella sedge | Sedge, Umbrella plant response rating | 85
CCc1cn(C(C)(C)C)nc1C(=O)Nc1cc(C(=O)N(C)CC)ccn1 [Compound 235] | smallflower umbrella sedge | Sedge, Umbrella plant response rating | 55

====

Test system: rice
Assay: Test B pre-/postemergence herbicide test
Format: in vivo, Oryza sativa
Details: 125 g ai/ha; 0 = no effect, 100 = complete control; preemergence
endpoint: Rice plant response rating (0 to 100 scale)

compound | systemUnderTest | testResult
CCc1nc(C(C)(C)C)sc1C(=O)Nc1cc(C(=O)N(C)CC)ccc1F | rice | 20
CCn1nc(C(C)(C)C)cc1C(=O)Nc1cncc(C(=O)NCC(F)(F)F)n1 | rice | 0
CCN1N=C(C(C)(C)C)CC1C(=O)Nc1cc(C(=O)N2CCCC2)ccc1F (racemic) | rice | 70
CCN(CC)C(=O)c1cccc(NC(=O)c2cn(C(C)(C)C)nc2C)c1 | rice | 0
C#CCNC(=O)c1cccc(NC(=O)c2sc(C(C)(C)C)nc2C)c1 | rice | 0
C#CCNC(=O)c1cccc(NC(=O)c2sc(C(C)(C)C)nc2CC)n1 | rice | 0
CCc1cn(C(C)(C)C)nc1C(=O)Nc1cc(C(=O)N(C)CC)ccn1 | rice | 0
CCn1nc(C(C)(C)C)cc1C(=O)Nc1cc(C(=O)N2CCCC2)ccc1F | rice | 50

====

Test system: large crabgrass
Assay: Test B pre-/postemergence herbicide test
Type: in vivo, Digitaria sanguinalis
Conditions: 500 g ai/ha; visual rating, 0 = no effect, 100 = complete control; preemergence
Experimental: […] At the same time, plants selected from these crop and weed species and also blackgrass (Alopecurus myosuroides Huds.), wheat (Triticum aestivum L.) and wild oat (Avena fatua L.) were treated with postemergence applications of test chemicals formulated in the same manner. […] Treated plants and controls were maintained in a greenhouse for 13 to 15 days, after which time all species were compared to controls and visually evaluated. […]
As shown below, each of these compounds has a reported Plant response rating, Crabgrass, Large value.
endpoint: Plant response rating, Crabgrass, Large

compound | endpoint | testResult
CCNC(=O)c1cccc(NC(=O)c2cc(C(C)(C)C)n[nH]2)c1 | Plant response rating, Crabgrass, Large | 0
C#CCNC(=O)c1cncc(NC(=O)c2cc(C(C)(C)C)nn2CC)c1 | Plant response rating, Crabgrass, Large | 50
CCn1nc(C(C)(C)C)cc1C(=O)Nc1ccnc(C(=O)NCCF)c1 | Plant response rating, Crabgrass, Large | 90
C#CCNC(=O)c1cccc(NC(=O)c2sc(C(C)(C)C)nc2CC)n1 | Plant response rating, Crabgrass, Large | 0
CCCOC(=O)c1cc(NC(=O)c2cc(C(C)(C)C)nn2CC)c(F)cc1F | Plant response rating, Crabgrass, Large | 0
CCC1=NN(C(C)(C)C)CC1C(=O)Nc1cc(C(=O)N(C)CC)ccc1F (racemic) | Plant response rating, Crabgrass, Large | 100
CCn1nc(C(C)(C)C)cc1C(=O)Nc1nc(C(=O)N(C)C)ccc1F | Plant response rating, Crabgrass, Large | 0
CCC1=NN(C(C)(C)C)CC1C(=O)Nc1cc(C(=O)N2CC=CC2)ccc1F (racemic) | Plant response rating, Crabgrass, Large | 100
CCn1nc(C(C)(C)C)cc1C(=O)Nc1cccc(C(=O)N2CC=CC2)c1 | Plant response rating, Crabgrass, Large | 100
CCc1nn(C2CCCC2)nc1C(=O)Nc1cccc(C(=O)N(C)C)c1 | Plant response rating, Crabgrass, Large | 100
CCNC(=O)c1cncc(NC(=O)c2cc(C(C)(C)C)nn2CC)n1 | Plant response rating, Crabgrass, Large | 0
CCOc1ccc(F)c(NC(=O)c2cc(C(C)(C)C)nn2CC)c1 | Plant response rating, Crabgrass, Large | 0
CCN1N=C(C(C)(C)C)CC1C(=O)Nc1cc(C(=O)N2CCCC2)ccc1F (racemic) | Plant response rating, Crabgrass, Large | 100
CCn1nc(C2(C)CC2)cc1C(=O)Nc1cccc(C(=O)N2CC=CC2)c1 | Plant response rating, Crabgrass, Large | 100
CCN(C)C(=O)c1cccc(NC(=O)c2sc(C(C)(C)C)nc2C)c1 | Plant response rating, Crabgrass, Large | 100

====

Test system: lambsquarters
Assay: Test B pre-/postemergence herbicide test
Assay type: in vivo, Chenopodium album
Settings: 125 g ai/ha; 0 = no effect, 100 = complete control; preemergence
The compounds listed here are annotated with their Lambsquarters plant response rating (0 to 100 scale).
endpoint: Lambsquarters plant response rating (0 to 100 scale)

compoundStructureString | testResult
CCn1nc(C(C)(C)C)cc1C(=O)Nc1cccc(C(=O)N2CC=CC2)c1 | 100
CCc1cn(C(C)(C)C)nc1C(=O)Nc1cc(C(=O)N(C)CC)ccn1 | 50
CC(=O)c1cccc(NC(=O)c2cn(C(C)C)nc2C)c1 | 0
C#CCNC(=O)c1ccc(F)c(NC(=O)c2cc(C3(C)CC3)nn2CC)c1 | 0
CCc1nn(C(C)(C)C)cc1C(=O)Nc1cccc(C(C)=NO)c1 | 90
CCn1nc(C(C)(C)C)cc1C(=O)Nc1cccc(OC(C)C)c1 | 70
C#CCNC(=O)c1cccc(NC(=O)c2sc(C(C)(C)C)nc2C)c1 | 10
Cc1nc(C(C)(C)C)sc1C(=O)Nc1cccc(C(=O)NCC(F)(F)F)c1 | 0
CCn1nc(C(C)(C)C)cc1C(=O)Nc1cncc(C(=O)NCC(F)(F)F)n1 | 0
CCn1nc(C(C)(C)C)cc1C(=O)Nc1cccc(OC(F)(F)F)c1 | 100
CCN(CC)C(=O)c1cccc(NC(=O)c2cn(C(C)(C)C)nc2C)c1 | 50
CCn1nc(C(C)(C)C)cc1C(=O)Nc1cncc(C(=O)N(C)C)n1 | 100

====

Test system: large crabgrass
Test: Test C pre-/postemergence herbicide test
Assay type: in vivo, Digitaria sanguinalis
Conditions: Preemergence, 500 g ai/ha; scale 0 to 100, 0 no effect, 100 complete control
Excerpt: […]
Catalogue of Crabgrass, Large plant response rating values

compoundStructureString | Crabgrass, Large plant response rating
CCNC(=O)c1cc(C)nc(NC(=O)c2cc(C(C)(C)C)nn2CC)c1 | 100
CCn1nc(C(C)(C)C)cc1C(=O)Nc1cccc(S(=O)(=O)C(F)(F)F)c1 | 100
CCc1nn(C(C)(C)C)cc1C(=O)Nc1cccc(C(C)=NO)c1 | 100
C=CCNC(=O)c1cccc(NC(=O)c2sc(C(C)(C)C)nc2C)c1 | 95
CCN(CC)C(=O)c1cccc(NC(=O)c2cc(C(C)(C)C)nn2CC)n1 | 80
